Hey, just so you know, these numbers are from patent US9629830B2.

Target: EphA4 (Rattus norvegicus, UniProt D3ZZK3)
Construct: endogenous in cells; host or cells: primary rat cortical neurons (A5), primary rat hippocampal neurons (A7)
Sequence (D3ZZK3 20-986): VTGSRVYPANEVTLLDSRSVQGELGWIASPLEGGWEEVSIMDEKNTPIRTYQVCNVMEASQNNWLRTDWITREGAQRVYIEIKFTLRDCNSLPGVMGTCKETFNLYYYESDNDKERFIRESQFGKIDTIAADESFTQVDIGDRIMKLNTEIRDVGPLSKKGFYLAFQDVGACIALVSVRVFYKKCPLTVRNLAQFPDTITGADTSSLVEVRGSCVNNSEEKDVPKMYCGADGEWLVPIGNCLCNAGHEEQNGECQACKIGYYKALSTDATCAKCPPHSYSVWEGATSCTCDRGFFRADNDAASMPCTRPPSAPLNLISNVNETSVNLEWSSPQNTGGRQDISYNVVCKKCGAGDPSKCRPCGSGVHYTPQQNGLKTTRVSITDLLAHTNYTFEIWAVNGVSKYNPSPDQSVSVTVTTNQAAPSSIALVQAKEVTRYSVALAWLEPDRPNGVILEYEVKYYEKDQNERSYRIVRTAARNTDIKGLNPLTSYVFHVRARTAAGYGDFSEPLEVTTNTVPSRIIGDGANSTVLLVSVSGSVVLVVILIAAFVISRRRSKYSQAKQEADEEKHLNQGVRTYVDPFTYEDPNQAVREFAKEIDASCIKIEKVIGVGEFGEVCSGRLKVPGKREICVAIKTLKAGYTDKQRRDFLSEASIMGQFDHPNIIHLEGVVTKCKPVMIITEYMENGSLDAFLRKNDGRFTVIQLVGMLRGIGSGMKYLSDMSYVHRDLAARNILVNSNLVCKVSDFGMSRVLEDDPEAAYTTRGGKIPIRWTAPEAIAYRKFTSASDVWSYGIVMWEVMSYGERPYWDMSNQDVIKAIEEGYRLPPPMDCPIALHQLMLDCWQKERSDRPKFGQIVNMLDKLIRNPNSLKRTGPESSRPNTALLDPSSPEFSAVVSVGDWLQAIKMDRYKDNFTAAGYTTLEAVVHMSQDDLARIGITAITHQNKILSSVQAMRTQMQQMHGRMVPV
Assay: Ephrin-A1-induced EphA4 cluster assay in cultured hippocampal neurons
Type: cell-based
Settings: 50 μM
Measured property: inhibitory effect on EphA4 cluster formation

Guide cases for inhibitory effect on EphA4 cluster formation, answers given:
Compound: CCC1CN2CCC3(C(=O)N(Cc4ccccc4-c4ccccc4)c4ccccc43)C2CC1C(=COC)C(=O)OC (centres unmarked) [RHY-10]
Target of assay: EphA4 (Rattus norvegicus, UniProt D3ZZK3)
Endpoint result: most significant
--
Compound: C=CCN1C(=O)C2(CCN3CC(CC)C(C(=COC)C(=O)OC)CC32)c2ccccc21 (centres unmarked) [RHY-17]
Target of assay: EphA4 (Rattus norvegicus, UniProt D3ZZK3)
Endpoint result: most significant
--
Compound: CCC1CN2CCC3(C(=O)N(Cc4cccc(Cl)c4)c4ccccc43)C2CC1C(=COC)C(=O)OC (centres unmarked) [RHY-19]
Target of assay: EphA4 (Rattus norvegicus, UniProt D3ZZK3)
Endpoint result: most significant
--
Compound: CCC1CN2CCC3(C(=O)N(CC(=O)c4ccc(OC)cc4)c4ccccc43)C2CC1C(=COC)C(=O)OC (centres unmarked) [RHY-28]
Target of assay: EphA4 (Rattus norvegicus, UniProt D3ZZK3)
Endpoint result: most significant

Kindly note: EphA4 (Rattus norvegicus, UniProt D3ZZK3), CCC1CN2CCC3(C(=O)N(CC=Cc4ccccc4)c4ccccc43)C2CC1C(=COC)C(=O)OC (centres unmarked) [RHY-9] , inhibitory effect on EphA4 cluster formation value reported: most significant

====

Test: Blood and brain penetration assay after single oral administration
Format: in vivo, mouse
Conditions: male, C57Bl/6, plasma; mouse, single oral 50 mg/kg
Measured property: Cmax (ng/mL)
Just the number please, in ng/mL, no unit attached.

Reported Cmax for CC[C@H]1CN2CC[C@]3(C(=O)Nc4ccccc43)[C@@H]2C[C@@H]1/C(=C\OC)C(=O)OC was 583

====

Target: EphA4 (Rattus norvegicus, UniProt D3ZZK3)
Construct: endogenous in cells; host or cells: primary rat cortical neurons (A5), primary rat hippocampal neurons (A7)
Assay: Ephrin-A1-induced EphA4 cluster assay in cultured hippocampal neurons
Format: cell-based
Details: same assay system; no data given
Measured property: potency as EphA4 inhibitor

Here are 5 compounds together with their reported answers.
Compound: CCC1CN2CCC3(C(=O)N(CCCCCCCCl)c4ccccc43)C2CC1C(=COC)C(=O)OC (centres unmarked) [RHY-64]
potency as EphA4 inhibitor: tested and verified
//
Compound: CCC1CN2CCC3(C(=O)N(CCCCCCCCNCCN4CCCC4)c4ccccc43)C2CC1C(=COC)C(=O)OC (centres unmarked) [RHY-53]
potency as EphA4 inhibitor: tested and verified
//
Compound: CCC1CN2CCC3(C(=O)N(CCCCCCCCCCl)c4ccccc43)C2CC1C(=COC)C(=O)OC (centres unmarked) [RHY-62]
potency as EphA4 inhibitor: tested and verified
//
Compound: CCC1CN2CCC3(C(=O)N(CCCCCCCl)c4ccccc43)C2CC1C(=COC)C(=O)OC (centres unmarked) [RHY-63]
potency as EphA4 inhibitor: tested and verified
//
Compound: CCC1CN2CCC3(C(=O)N(CCCCl)c4ccccc43)C2CC1C(=COC)C(=O)OC (centres unmarked) [RHY-61]
potency as EphA4 inhibitor: tested and verified

Measured potency as EphA4 inhibitor, CCC1CN2CCC3(C(=O)N(CCCCCCCCCCCl)c4ccccc43)C2CC1C(=COC)C(=O)OC (centres unmarked) [RHY-65] : tested and verified

Input CCC1CN2CCC3(C(=O)N(CCCCCCCCCCCCCl)c4ccccc43)C2CC1C(=COC)C(=O)OC (centres unmarked) [RHY-67] . Output potency as EphA4 inhibitor: tested and verified

potency as EphA4 inhibitor reading for CCC1CN2CCC3(C(=O)N(CCCCCCCCCCCCl)c4ccccc43)C2CC1C(=COC)C(=O)OC (centres unmarked) [RHY-66] : tested and verified
